Target: human MET kinase Y1230C (Homo sapiens, UniProt P08581, Y1230C)
Construct: GST-tagged recombinant human MET kinase domain
Sequence (P08581 1078-1345 Y1230C): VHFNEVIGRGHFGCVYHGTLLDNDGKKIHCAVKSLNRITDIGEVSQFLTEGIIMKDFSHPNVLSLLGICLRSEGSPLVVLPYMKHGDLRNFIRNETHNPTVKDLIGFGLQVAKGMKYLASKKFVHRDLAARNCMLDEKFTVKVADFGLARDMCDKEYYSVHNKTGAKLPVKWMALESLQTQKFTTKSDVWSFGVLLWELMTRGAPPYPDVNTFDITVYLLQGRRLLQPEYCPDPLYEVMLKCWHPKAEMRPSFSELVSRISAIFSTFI
Experiment: c-Met Enzyme Assay, Y1230C mutant
Details: averaged IC50; Y1230C 2 nM; 60-minute incubation at 22° C.; read-out: Y1230 C IC50
For each entry below, report its log10 of IC50 value.
Parameter value (number): base-10 log of IC50 in nM.

In [3]: df
Out[3]:
                                        smi  measured_attribute  readout_number
0  COc1cc2nccc(Oc3ccc(NC(=O)c4cn(CC(=O)N5CCOCC5)cc(-c5ccc(F)cc5F)c4=O)nc3)c2cc1OC       log10 of IC50            1.82
1  CCCC(CCC)n1cc(C(=O)Nc2ccc(Oc3ccnc4cc(OC)c(OC)cc34)cn2)c(=O)c(-c2ccc(F)cc2F)c1       log10 of IC50            1.19

Give me log10 of IC50 for each of these compounds, listed below.
1. COc1cc2nccc(Oc3cnc(NC(=O)c4cn(C(C)C)c(C)c(-c5ccc(F)cc5)c4=O)nc3)c2cc1OC
2. COc1cc2nccc(Oc3ccc(NC(=O)c4cn(CC(C)(C)O)cc(-c5ccc(F)cc5)c4=O)nc3)c2cc1OC
3. COc1cc2nccc(Oc3ccc(NC(=O)c4cn(C)c(C(C)C)c(-c5ccc(F)cc5)c4=O)nc3)c2cc1OC
4. COc1cc2nccc(Oc3cnc(NC(=O)c4cn(C(C)C)cc(-c5ccc(F)cc5)c4=O)nc3)c2cc1OC

0.34
0.79
0.64
0.63

---

Target: human MET kinase Y1230S (Homo sapiens, UniProt P08581, Y1230S)
Construct: GST-tagged recombinant human MET kinase domain
Sequence (P08581 1078-1345 Y1230S): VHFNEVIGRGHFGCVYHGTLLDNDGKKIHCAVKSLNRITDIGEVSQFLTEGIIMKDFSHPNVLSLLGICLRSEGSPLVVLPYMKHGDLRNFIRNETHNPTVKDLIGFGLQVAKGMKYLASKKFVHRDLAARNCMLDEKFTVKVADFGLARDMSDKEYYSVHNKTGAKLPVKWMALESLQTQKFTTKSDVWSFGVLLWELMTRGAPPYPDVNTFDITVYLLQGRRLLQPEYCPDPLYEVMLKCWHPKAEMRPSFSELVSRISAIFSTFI
Experiment: c-Met Enzyme Assay, Y1230S mutant
Details: averaged IC50; Y1230S 8 nM; 60-minute incubation at 22° C.; read-out: Y1230 S IC50
Would you kindly list IC50 for each of these compounds?
Answers are plain numbers, in nM.

Go through the list and state IC50 for each entry.
1. COc1cc2c(Oc3ccc(NC(=O)c4cn(C(C)C)cc(-c5ccc(F)cc5)c4=O)nc3)ccnc2cc1OCCCN1CCOCC1
2. CNC(=O)Cn1cc(C(=O)Nc2ccc(Oc3ccnc4cc(OC)c(OC)cc34)cn2)c(=O)c(-c2ccc(F)cc2)c1
3. CCOc1ccc2c(Oc3ccc(NC(=O)c4cn(C(C)C)cc(-c5ccc(F)cc5)c4=O)nc3)ccnc2c1

3
2.2
14.3

---

Molecular target: His-tagged recombinant human AXL cytoplasmic domain (Homo sapiens, UniProt P30530)
Construct: His-tagged recombinant human AXL cytoplasmic domain
Sequence (P30530 473-894 limits assumed): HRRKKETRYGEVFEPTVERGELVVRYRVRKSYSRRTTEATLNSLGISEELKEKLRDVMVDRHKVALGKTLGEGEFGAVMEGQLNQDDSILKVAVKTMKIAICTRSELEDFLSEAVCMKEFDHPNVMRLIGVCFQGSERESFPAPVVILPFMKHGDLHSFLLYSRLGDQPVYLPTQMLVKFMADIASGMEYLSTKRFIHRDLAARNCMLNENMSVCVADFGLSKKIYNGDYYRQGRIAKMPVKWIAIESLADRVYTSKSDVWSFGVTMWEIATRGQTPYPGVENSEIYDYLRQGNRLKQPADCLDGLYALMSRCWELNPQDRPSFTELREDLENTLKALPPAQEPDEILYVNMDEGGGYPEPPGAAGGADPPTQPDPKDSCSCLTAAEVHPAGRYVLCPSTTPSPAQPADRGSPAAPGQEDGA
Test: AXL Enzyme Assay (LanthaScreen Eu Kinase Binding)
Details: averaged IC50; 60-minute incubation at 22° C.; TR-FRET
measured.attribute: pIC50
One number for each entry, as −log10 of the molar value.

Consider the worked cases shown below.
In [3]: df
Out[3]:
                                        smi  readout_number
0  COc1cc2nccc(Oc3ccc(NC(=O)c4cn(CCN(C)C)cc(-c5ccc(F)c(F)c5)c4=O)nc3)c2cc1OC            8.70
1  COc1cc2nccc(Oc3ccc(NC(=O)c4cn(C(C)C)c(C(C)C)c(-c5ccc(F)cc5)c4=O)nc3)c2cc1OC            8.52
2  COc1cc2nccc(Oc3ccc(NC(=O)c4cn(CCN(C)C)cc(-c5ccc(F)cc5F)c4=O)nc3)c2cc1OC            8.70
3  COc1cc2c(Oc3ccc(NC(=O)c4cn(C(C)C)c(C)c(-c5ccc(F)cc5)c4=O)nc3)ccnc2cc1F            8.70
4  COc1cc2nccc(Oc3ccc(NC(=O)c4cn(CCN(C)C)cc(-c5ccc(Cl)cc5)c4=O)nc3)c2cc1OC            8.70
5  COc1cc2nccc(Oc3ccc(NC(=O)c4cn(C(C)C)cc(-c5ccc(Cl)cc5)c4=O)nc3)c2cc1OC            8.70
6  COc1cc2nccc(Oc3ccc(NC(=O)c4cn(CC(=O)N(C)C)cc(-c5ccc(F)c(F)c5)c4=O)nc3)c2cc1OC            9.00
7  COc1cc2nccc(Oc3ccc(NC(=O)c4cn(CC(C)C)cc(-c5ccc(F)cc5)c4=O)nc3)c2cc1OC            8.30
8  COc1cc2nccc(Oc3cnc(NC(=O)c4cn(C(C)C)c(C)c(-c5ccc(F)cc5)c4=O)nc3)c2cc1OC            8.70
9  COc1cc2nccc(Oc3ccc(NC(=O)c4cn(C(C)C)cc(-c5ccc(F)cc5)c4=O)nc3)c2cc1OC            9.00

Kindly give each listed record's pIC50.
1. COc1cc2nccc(Oc3cnc(NC(=O)c4cn(C(C)C)cc(-c5ccc(F)cc5)c4=O)nc3)c2cc1OC
2. COc1cc2nccc(Oc3ccc(NC(=O)c4cn(C)cc(-c5ccc(F)cc5)c4=O)nc3)c2cc1OC
3. COc1ccc2nccc(Oc3ccc(NC(=O)c4cn(C(C)C)cc(-c5ccc(F)cc5)c4=O)nc3)c2c1
4. COc1cc2nccc(Oc3ccc(NC(=O)c4cn(CC(=O)N(C)C)cc(-c5ccc(F)cc5)c4=O)nc3)c2cc1OC
5. COc1cc2nccc(Oc3ccc(NC(=O)c4cn(CC(=O)N5CCCC5)cc(-c5ccc(F)cc5F)c4=O)nc3)c2cc1OC
6. COc1cc2nccc(Oc3ccc(NC(=O)c4cn(CCN(C)C)cc(-c5ccc(F)cc5)c4=O)nc3)c2cc1OC
7. COc1cc2nccc(Oc3ccc(NC(=O)c4cn(C(C)C)cc(-c5ccc(F)cc5Cl)c4=O)nc3)c2cc1OC
8. COc1cc2nccc(Oc3ccc(NC(=O)c4cn(CCC(C)C)cc(-c5ccc(F)c(F)c5)c4=O)nc3)c2cc1OC

1. 8.30
2. 9.00
3. 8.22
4. 9.00
5. 8.70
6. 9.00
7. 8.70
8. 8.22

Batch lookup, pIC50 per entry.
1. COc1cc2nccc(Oc3ccc(NC(=O)c4cn(C(C)C)c(C)c(-c5ccc(F)c(F)c5)c4=O)nc3)c2cc1OC
2. COc1cc2nccc(Oc3ccc(NC(=O)c4cn(CC5CCOCC5)cc(-c5ccc(F)cc5)c4=O)nc3)c2cc1OC
3. COc1cc2nccc(Oc3ccc(NC(=O)c4cn(C5CCOCC5)cc(-c5ccc(F)cc5)c4=O)nc3)c2cc1OC
4. COc1cc2nccc(Oc3ccc(NC(=O)c4cn(CC(=O)N(C)C)cc(-c5ccc(F)cc5F)c4=O)nc3)c2cc1OC
5. COc1ccc(-c2cn(C(C)C)cc(C(=O)Nc3ccc(Oc4ccnc5cc(OC)c(OC)cc45)cn3)c2=O)c(F)c1

[9.00, 8.70, 8.70, 8.70, 9.00]
